Each record here notes measured TGI.
# Tested on: CAKI-1 renal
# Assay name: NCI tumour cell line growth inhibition, 48 h

Examples with answers:
query: Supply reported TGI belonging to this compound: "COc1ccc2[nH]c3c(C)c4c(c(C)c3c2c1)CN(C)CC4"
result: 34.1 µM

query: Supply reported TGI belonging to this compound: "O=C(O)Cn1ccc(=O)c2ccc([N+](=O)[O-])cc21"
result: > 100 µM

---
query: Supply reported TGI belonging to this compound: "NC(C(F)(F)F)(C(F)(F)F)P(=O)(Cc1ccccc1)Cc1ccccc1"
result: > 100 µM

query: Supply reported TGI belonging to this compound: "COc1cc(OC)cc(-c2ccc(-c3ccc(C(=N)N)o3)o2)c1"
result: 16.1 µM

query: Supply reported TGI belonging to this compound: CCCCCCCCCC[C@@H](O)[C@@H]1CC[C@H]([C@H]2CC[C@@H]([C@@H](O)CCCCCCCCCC[C@H]3CC(CC(C)=O)C(=O)O3)O2)O1 (some centres not stated)
result: 75.8 µM

query: Supply reported TGI belonging to this compound: COCOC1/C=C/CCCCC2=C(C)C=C(C1)O2 (configuration not stated)
result: > 100 µM

query: Supply reported TGI belonging to this compound: CCN1CC2=C(NC(=S)NC2c2ccc(Cl)cc2)/C(=C/c2ccc(Cl)cc2)C1 (configuration not stated)
result: > 100 µM

query: Supply reported TGI belonging to this compound: CN1C(=O)C2C(=O)N(Cc3ccccc3)CC(=O)N2c2cccnc21 (configuration not stated)
result: > 100 µM

query: Supply reported TGI belonging to this compound: "COc1cc(O)c(/C=N/N=C(\N)NO)c(OC)c1"
result: > 10 µM

----------
# System: KM12 colon
# Assay name: NCI tumour cell line growth inhibition, 48 h
Measurement type: TGI

query: Supply reported TGI belonging to this molecule: "O=C(N/N=C/c1ccccc1O)c1cccc([N+](=O)[O-])c1"
result: > 100 µM

query: Supply reported TGI belonging to this molecule: "O=C(O)CC/C(=N\Nc1nsc2ccccc12)c1ccccc1"
result: > 100 µM

query: Supply reported TGI belonging to this molecule: COc1cc2c(cc1OC)C1=Cc3cc(OC)c(OC)cc3C(C)N1C=C2 (stereo unspecified)
result: > 100 µM

---
query: Supply reported TGI belonging to this molecule: "CNC(=O)OCc1c(COC(=O)NC)c(-c2ccc(Cl)c(Cl)c2)n2c1SCC2"
result: 36.8 µM

query: Supply reported TGI belonging to this molecule: "COC(=O)CC(=O)C[P+](c1ccccc1)(c1ccccc1)c1ccccc1"
result: > 218 µM

query: Supply reported TGI belonging to this molecule: "COc1ccc(-n2c(=O)c3[nH]cnc3n(-c3ccc(OC)cc3)c2=S)cc1"
result: > 100 µM

query: Supply reported TGI belonging to this molecule: COc1ccc(N2C(=O)C3c4[nH]c5ccc(OCc6ccccc6)cc5c4C4CCC(C(C)(C)C)CC4C3C2=O)cc1 (stereo unspecified)
result: > 100 µM

query: Supply reported TGI belonging to this molecule: "Cc1cc(I)cc(CNCCCN2CCSCC2)c1O"
result: 35.9 µM

query: Supply reported TGI belonging to this molecule: "CC(=O)Nc1ccccc1Sc1ccccc1"
result: > 100 µM

query: Supply reported TGI belonging to this molecule: "O=[N+]([O-])/C=C\c1ccc(Cl)c(Cl)c1"
result: 4.56 µM

query: Supply reported TGI belonging to this molecule: C/C(CCOC1CCCCO1)=C(\C)[Si](C)(C)C (stereo unspecified)
result: > 100 µM

----------
Each record here notes measured TGI.
# Test system: HL-60(TB) leukemia
# Assay name: NCI tumour cell line growth inhibition, 48 h
Write the value in µM as a bare number.

Examples with answers:
query: Supply reported TGI belonging to this molecule: COc1ccc(C2=NN(C(=O)c3cc(OC)c(OC)c(OC)c3)C(c3ccc(C#N)cc3)C2)cc1OC (centres undefined)
result: 6.01

query: Supply reported TGI belonging to this molecule: "CN1CCN(Cc2ccc(NC(=O)c3cncc(C#Cc4cnc(N)c5ccc(C#N)cc45)c3)cc2C(F)(F)F)CC1"
result: 1.05

query: Supply reported TGI belonging to this molecule: "COc1ccc2[nH]c(O)c(/C=c3/cc4c(c(-c5cc(OC)c(OC)c(OC)c5)n3)=Nc3ccccc3-4)c2c1"
result: 34

---
query: Supply reported TGI belonging to this molecule: CCCCCCCCCC[C@@H](O)[C@@H]1CC[C@H]([C@H]2CC[C@@H]([C@@H](O)CCCCCCCCCC[C@H]3CC(CC(C)=O)C(=O)O3)O2)O1 (some centres undefined)
result: 2.29

query: Supply reported TGI belonging to this molecule: CC(CN1c2ccccc2Sc2ccccc21)N(C)C (centres undefined)
result: 39.9

----------
# System: UO-31 renal
# Assay name: NCI tumour cell line growth inhibition, 48 h
Each record here notes measured GI50.

Examples with answers:
query: Print UO-31 renal GI50 for "Cc1ccc(S(=O)(=O)N(CCOc2ccc(/C(N)=N/Cl)cc2)CCOc2ccc(/C(N)=N\Cl)cc2)cc1" .
result: > 100 µM

query: Print UO-31 renal GI50 for "O=C(Nc1ccc(N2CCNCC2)cc1)c1[nH]ncc1Nc1cc(Oc2ccccc2)ncn1" .
result: 1.7 µM

query: Print UO-31 renal GI50 for O=C(CI)NC1Oc2ccccc2-c2oc(=O)c(-c3ccccc3)cc21 (stereo not drawn) .
result: 1.86 µM

---
query: Print UO-31 renal GI50 for "COc1ccc(/C(=C2\O[C@@H]([C@H]3COC(C)(C)O3)[C@H]3OC(C)(C)O[C@@H]23)c2cc(OC)c(OC)c(OC)c2)cc1O" .
result: 7.53 µM

query: Print UO-31 renal GI50 for CC1OC(O[C@H]2C[C@@H](O)[C@]3(CO)[C@H]4[C@H](O)C[C@]5(C)[C@@H](C6=CC(=O)OC6)CC[C@]5(O)[C@@H]4CC[C@]3(O)C2)C(O)C(O)C1O (stereo partly drawn) .
result: 24.7 µM

query: Print UO-31 renal GI50 for "O=C(c1ccco1)c1nc2ccc(C(F)(F)F)cc2[n+]([O-])c1C(F)(F)F" .
result: > 100 µM

query: Print UO-31 renal GI50 for "NCC(=O)NS(=O)(=O)OC[C@H]1O[C@@H](n2cnc3c(N)ncnc32)[C@H](O)[C@@H]1O" .
result: 1.71 µM

query: Print UO-31 renal GI50 for "C=C(CN1CCc2ccccc2C1)c1ccc(C(=O)Nc2cnccn2)cc1" .
result: 24.4 µM

----------
# Test system: KM12 colon
# Assay name: NCI tumour cell line growth inhibition, 48 h
Measurement type: GI50

query: Supply reported GI50 belonging to this compound: "O=C(CN1CCOCC1)Nc1ccc(Cn2nnc3c2C(=O)c2nnn(Cc4ccc(NC(=O)CN5CCOCC5)cc4)c2C3=O)cc1"
result: 959 nM

---
query: Supply reported GI50 belonging to this compound: "N#Cc1ccc(C#Cc2ccccc2C#CCCCCO)cc1"
result: 17800 nM

query: Supply reported GI50 belonging to this compound: "O=C1/C(=C/c2ccc(Br)cc2)C=C(c2ccccc2)N1CCc1ccccc1"
result: 43600 nM

query: Supply reported GI50 belonging to this compound: "CN(C)CCNc1cc(-c2ccccc2)nc2ccccc12"
result: 4870 nM

query: Supply reported GI50 belonging to this compound: "O=[N+]([O-])/C=C\c1ccc(Cl)c(Cl)c1"
result: 2080 nM

query: Supply reported GI50 belonging to this compound: CSc1ccc(C2=NN(C(C)=O)C(c3cc(C)cs3)C2)cc1 (stereo unspecified)
result: 24000 nM

query: Supply reported GI50 belonging to this compound: "Cc1cc(I)cc(CNCCCN2CCSCC2)c1O"
result: 16900 nM

query: Supply reported GI50 belonging to this compound: "Cc1ccc2c(c1)C(=O)/C(=C/c1ncc([N+](=O)[O-])n1C)O2"
result: 1670 nM

----------
# Tested on: A498 renal
# Assay name: NCI tumour cell line growth inhibition, 48 h; in the data active = GI50 below about 0.43 µM; inactive = the rest
Form entry, call: pick from active, inactive

query: Recorded test call requested for "Cc1cc(I)cc(CNCCCN2CCSCC2)c1O"
result: inactive

query: Recorded test call requested for "Cc1nn(CN2CCN(C)CC2)c(=S)n1/N=C/c1cccc2ccccc12"
result: inactive

query: Recorded test call requested for "O=c1oc2ccc(F)cc2c(=O)n1-c1ccc(F)cc1F"
result: inactive

Now turn to the next molecule.
query: Recorded test call requested for "O=C(Nc1ccc(N2CCNCC2)cc1)c1[nH]ncc1Nc1cc(Oc2ccccc2)ncn1"
result: inactive

----------
# Tested on: UACC-257 melanoma
# Assay name: NCI tumour cell line growth inhibition, 48 h
Each record here notes measured TGI.

Examples with answers:
query: Supply reported TGI belonging to this compound: "C[C@@]12[C@H]3CC[C@@H]1[C@H](O)C(=O)N2CC3"
result: > 100 µM

query: Supply reported TGI belonging to this compound: "CCN1c2ccccc2-n2c(C)nnc2-c2c1n[nH]c2-c1ccccc1"
result: > 100 µM

query: Supply reported TGI belonging to this compound: CCCCN1C(=O)CC2[C@@H]3CCc4cc(OC(C)=O)ccc4C3CC[C@]2(C)C1=O (some centres undefined)
result: > 10 µM

query: Supply reported TGI belonging to this compound: CC(CN1c2ccccc2Sc2ccccc21)N(C)C (centres undefined)
result: 39.4 µM

query: Supply reported TGI belonging to this compound: O=C(CCCCCCCCC(=O)NN1C(=O)/C(=C\c2ccc(O)c(O)c2)SC1c1ccc(Cl)cc1)NN1C(=O)/C(=C\c2ccc(O)c(O)c2)SC1c1ccc(Cl)cc1 (centres undefined)
result: > 100 µM

---
query: Supply reported TGI belonging to this compound: "O=C(N/N=C/c1ccccc1O)c1cccc([N+](=O)[O-])c1"
result: > 60.6 µM
